test: Restrictive medium S. cerevisiae growth inhibition, OD615, pilot screen of yeast lifespan reduction project, restrictive growth control (AID 706); settings: OD615, 48 h, at 10 µM, hits give high values;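 also: modified DeaD lifespan yeast strain shifted to restrictive glucose medium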
readoutName: growth inhibition (%)
Give the value, in units of %, as a plain number.

Consider the worked cases shown below.
O=C(Cn1c(=O)oc2cc(S(=O)(=O)N3CCc4ccccc43)ccc21)N1CCCCC1 : -7.46
Cc1ccc(C)c(C(=O)N(Cc2nc(-c3ccc(Cl)cc3)no2)C(C)C)c1 : -16.6
COc1ccc(C)cc1NC(=O)CN1C(=O)c2ccccc2S1(=O)=O : 10.8
O=C(Nc1nnc(-c2ccc3c(c2)CCCC3)o1)C1COc2ccccc2O1 (stereo not drawn) : 23
CCN(CC)c1ccc(NC(=O)Cn2cc3c(n2)CCC(C)C3)c(C)c1 (stereo not drawn) : 1.57
COc1ccc(S(=O)(=O)N2CC(C)N(S(=O)(=O)c3ccc(OC)cc3)CC2C)cc1 (stereo not drawn) : 0.035
CCOC(=O)N1CCN(S(=O)(=O)c2cccc3nonc23)CC1 : -27.6
CCN(CC)Cc1c(O)ccc2c(-c3ccccc3)cc(=O)oc12 : -1.64
CCC(C)Sc1nc2c(c(=O)[nH]c(=O)n2C)n1Cc1ccccc1Cl (stereo not drawn) : 8.91
CCCNC(=O)Nc1cc(OCC)c(N2CCOCC2)cc1OCC : 6.55

Notebook: "Cc1ccc(C)c(N(C)S(=O)(=O)c2cccc3nsnc23)c1" , growth inhibition read as -6.89

Sample "Cc1cnc(C(=O)OCC(=O)Nc2cc(Cl)cc(Cl)c2)cn1" ; growth inhibition observed: -9.38

Record "O=C(CC12CC3CC(CC(C3)C1)C2)N1CCOCC1" , field growth inhibition: 1.68

Record summary for CCOC(=O)C1CCCN(C(=O)c2cn(C)c3ccc(S(=O)(=O)N(C)C)cc3c2=O)C1 (stereo not drawn) : reported growth inhibition = -1.87

growth inhibition reading for Cc1oc(-c2ccccc2)nc1CS(=O)CC(=O)N1CCc2ccccc2C1 (stereo not drawn) : 22.9

For this compound ( "COc1cc(NC(=O)c2onc(C)c2Cl)c(OC)cc1Cl" ), measured growth inhibition is -6.72

----------
assay: growth suppression of beta-catenin knockout HCT116, pilot screen, human colon tumor cells (AID 823); settings: CellTiter-Glo, 60 h, at 10 µM, hits give low values;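 also: 0% = wells killed by 20 µM Hyamine and 100% = untreated DMSO cell wells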
Results filed as inconclusive are left out.
The entries below come with measured viability values attached.
# number only, unit % dropped from output

Example cases with answers are listed next.
COc1ccc(-c2cc(C(F)F)n3ncc(C(=O)NCCCN4CCCC4=O)c3n2)cc1 : 78.5
COc1ccc(CSc2nnnn2Cc2ccccc2)cc1OC : 87.3

viability in this record for "CCN1C(=O)c2ccc(-c3nc4ccccc4c(=O)o3)cc2C1=O" : 99

What the record says about COc1ccc(OC)c(NC2c3ccccc3C(=O)N2Cc2ccc3c(c2)OCO3)c1 (stereo unspecified) : viability is 98

// sample "O=c1oc2ccccc2n1CCCOc1ccccc1" , its viability was 98.1

Recorded viability (molecule "Cn1c(Cn2c(=O)sc3ccccc32)nnc1SCC(=O)NCc1ccccc1" ): 99

For "O=C(c1ccccc1NS(=O)(=O)c1cccs1)N1CCCC1" the molecule record lists viability as 93.1

viability reported for this molecule "C=CCNC(=O)c1cnc2n(c1=O)CCS2" : 103

get_value(item= "Cc1ccc2oc(=O)c3cnn(CC(=O)N4CCCCCC4)c3c2c1" , readout=viability) returns 82.8

Entry "Cn1c(Cn2c(=O)sc3ccccc32)nnc1SCC(=O)N1CCc2ccccc21" — recorded viability = 86.1

viability recorded for this molecule, "CCOc1ccc(NC(=O)CCS(=O)(=O)c2cccc3nsnc23)cc1" , is 101
